// provenance: patent US20110038881A1

- tested.on: HLA-DRB5*0101 (human)
- run.description: competition binding
- experimental.setup: modification not given
pIC50: −log10 of the molar value.
recorded.endpoint: pIC50

// solved cases for pIC50 follow
{"binder": "KPLTLRWEPSSQPTI [p50*]", "pIC50": 4.34}
{"binder": "KDYIALKEDLRSWTA [p25]", "pIC50": 7.28}
{"binder": "HTVQRMYGCDVGSDW [p17*]", "pIC50": 4.92}
{"binder": "RGYHQYAYDGKDYIA [p22]", "pIC50": 4.40}
{"binder": "RGYYNQSEAGSHTVQ [p16*]", "pIC50": 6.76}

P = APWIEQEGPEYWDGE [p10]
Q = RSWTAADMAAQTTKH [p28]
// pick larger pIC50 from pair: P vs Q // respond with label for picked entry Q
